System: SR leukemia
method.description: NCI-60 one-dose screen, 48 h (100 = growth as untreated, 0 = no growth, -100 = all killed)
test.parameters: 10 µM
Experimental: Growth inhibition of the SR human tumor cell line is measured as a screen for anti-cancer activity. Cells are grown in 96 well plates and exposed to the test compound for 48 hours. Compounds are tested at a single concentration, which is 10^-5 M for most compounds. The reported endpoint is percent growth (GI% or GIPRCNT), where numbers from 0 - 100% represent growth inhibition, and numbers from -100% - 0 represent cell death. For example, a value of 40 represents 60% growth inhibition. […]
About 83,000 compounds went through this panel and 20% of them were active in at least one assay; those are over-represented in the sample as a whole. Activity calls are given as the source filed them. Rule for the calls: active = growth percent below 10; inactive = the rest.
Hi there, I'd appreciate the recorded growth for every entry that follows.

Prompt line: Returns the measured growth for the input compound. Input: CN(CCCl)c1ccc(/C=C/C2=[N+](C)c3ccccc3C2(C)C)cc1
Response line: 12.3% (inactive)

Prompt line: Now consider CC[C@@H](C)[C@@H]1NC(=O)C(NC(=O)C(CC(C)C)N(C)C(=O)C2CCCN2C(=O)C(C)O)C(C)OC(=O)C(Cc2ccc(OC)cc2)N(C)C(=O)C2CCCN2C(=O)C(CC(C)C)NC(=O)C(C)C(=O)C(C(C)C)OC(=O)C[C@H]1O (some centres undefined) .
Response line: 1.46% (active)

Prompt line: Now consider Cc1ccc(NC(=O)CBr)cc1 .
Response line: 89.5% (inactive)

Prompt line: Now consider C/C1=C\[C@H](C)C[C@H](C)OC(=O)C[C@H](c2ccc(O)cc2)NC(=O)[C@@H](Cc2c(Br)[nH]c3ccccc23)N(C)C(=O)[C@H](C)NC(=O)[C@@H](C)C1 .
Response line: -3.88% (active)

---

Hi there, I'd appreciate the recorded growth for every entry that follows.
System: MALME-3M melanoma
method.description: NCI-60 one-dose screen, 48 h (100 = growth as untreated, 0 = no growth, -100 = all killed)
test.parameters: 10 µM
Procedure: Cells are grown in 96 well plates and exposed to the test compound for 48 hours. Compounds are tested at a single concentration, which is 10^-5 M for most compounds. The reported endpoint is percent growth (GI% or GIPRCNT), where numbers from 0 - 100% represent growth inhibition, and numbers from -100% - 0 represent cell death. For example, a value of 40 represents 60% growth inhibition. A value of 0 means no net growth occurred over the course of the experiment. […]
This is part of a sample that, as a whole, favours compounds with a hit. Of some 83,000 tested, about 20% had one in any assay.
Answer with a number only, understood to be in %.

Prompt line: Returns the measured growth for the input molecule. Input: CC(C)C1(NC(=O)C2CC3c4cccc5[nH]cc(c45)CC3N(C)C2)OC2(O)C3CCCN3C(=O)C(Cc3ccccc3)N2C1=O (stereo unspecified)
Response line: 98.8

Prompt line: Now consider NNc1ccccc1 .
Response line: 118

Prompt line: Now consider CC(Cc1ccc2c(c1)OCO2)NN (stereo unspecified) .
Response line: 97.2

Prompt line: Now consider O=C1CCC(=O)N1SC(Cl)(Cl)Cl .
Response line: 118

Prompt line: Now consider CS(=N)(=O)CCC(N)C(=O)O (stereo unspecified) .
Response line: 103

Prompt line: Now consider COc1ccccc1[As]=[As]c1ccccc1OC (stereo unspecified) .
Response line: -72.8

Prompt line: Now consider O=C1C=Cc2ccccc2C1=O .
Response line: 52.7

Prompt line: Now consider O=C(O)c1cc(Cc2ccc(O)c(C(=O)O)c2)ccc1O (tested in a mixture with another compound) .
Response line: 89.6

Prompt line: Now consider NC(=O)c1cc([N+](=O)[O-])c(Cl)c([N+](=O)[O-])c1Cl .
Response line: -51.5

Prompt line: Now consider COS(=O)(=O)c1ccccc1 .
Response line: 111

Prompt line: Now consider COC(=O)C1C(O)C(C)C(O)C(C)/C=C\C=C(C)C(=O)Nc2c(C)c(OC(C)=O)c3c(c2O)C(=O)C(C)=C2OCOC(=C23)C(C)=CC(C)(O)C(O)C(C)C1O (stereo unspecified) .
Response line: 97.9

Prompt line: Now consider CC1CCC2(OC1)OC1C(O)C3C4CCC5CC(OC6OC(CO)C(OC7OC(CO)C(O)C(OC8OCC(O)C(O)C8O)C7OC7OC(CO)C(O)C(OC8OC(CO)C(O)C(O)C8O)C7O)C(O)C6O)C(O)CC5(C)C4CCC3(C)C1C2C (stereo unspecified) .
Response line: 14.8

Prompt line: Now consider Oc1c(Cl)cc(Cl)c2ccccc12.[Cu+2] .
Response line: 96.3

Prompt line: Now consider O=C(CBr)Nc1ccc(Cl)cc1 .
Response line: 29.8

Prompt line: Now consider COc1ccc2c(ccc3oc([N+](=O)[O-])cc32)c1 .
Response line: -55

Prompt line: Now consider CC(=O)Nc1c2sscc-2n(C)c1=O .
Response line: -89.7

Prompt line: Now consider O=C(CBr)Nc1ccccc1 .
Response line: 54.7

Prompt line: Now consider C/C1=C\[C@H](C)C[C@H](C)OC(=O)C[C@H](c2ccc(O)cc2)NC(=O)[C@@H](Cc2c(Br)[nH]c3ccccc23)N(C)C(=O)[C@H](C)NC(=O)[C@@H](C)C1 .
Response line: -65

Prompt line: Now consider NC(=O)c1cc([N+](=O)[O-])c(Cl)c([N+](=O)[O-])c1 .
Response line: 71.3

Prompt line: Now consider CC[C@@]1(O)C[C@H](OC2CC(N(C)C)C(O)C(C)O2)c2c(cc3c(c2O)C(=O)c2c(O)ccc(O)c2C3=O)[C@H]1C(=O)OC (stereo partly specified) .
Response line: -87.4

Prompt line: Now consider O=[P+](O)c1ccccc1 .
Response line: 119
